B1: r16_88_TrROS_Hall (parent)
chain: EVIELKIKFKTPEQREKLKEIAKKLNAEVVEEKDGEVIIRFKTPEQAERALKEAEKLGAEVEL

# Variants of: B1
# TEST_NAME: folding stability dG (cDNA display proteolysis); higher = more stable
# ASSAY_SETUP: PBS, room temperature
PARAMETER: folding stability dG (kcal/mol)
Numbers only, in kcal/mol.

>>> observed_result("N26D")
4.3

For the 7 variants below, give their folding stability dG values.
1. E55L
2. I39D
3. R49N
4. A54D
5. E20Q
6. N26G
7. L25G

[4.45, 0.533, 4.35, 2.86, 4.22, 4.43, 4.23]

Look at each variant and report its folding stability dG.
1. K52I
2. V37R
3. A47Y
4. R40C
5. I3W

4.03
3.03
4.79
4.37
4.71
